Test system: Rattus norvegicus
Assay: Toxicity in Sprague-Dawley rat assessed as glutamic-pyruvate level at 10 mg/kg/day, po (RVb = 22.8 +/-13.2 U/L)
Details: in vivo
MEASURED PROPERTY: Activity (U/L)
Give just the numeric value; U/L need not be written.

Some entries whose results are on file:
[[record]]
molecule = "COc1ccc(/C=C/C(=O)c2ccccc2O)cc1OC"
unit_string = "U/L"
readout_value = 15

[[record]]
molecule = "O=c1cc(-c2ccccc2Br)oc2ccccc12"
unit_string = "U/L"
readout_value = 45.4

[[record]]
molecule = "O=C(/C=C/c1ccc(Br)cc1)c1ccccc1O"
unit_string = "U/L"
readout_value = 26


Kindly consider the entry below.
Task item: Given the entry COc1ccc(/C=C/C(=O)c2ccccc2O)cc1 , report its measured Activity.
Reply: 13.2
